For each record, write down the corresponding Osmotic pressure.
- measurement_description: Saccharide concentration and osmotic pressure of hypertonic solutions (measured values)
- Type: physicochemical
- settings: saccharide concentration 0.9 M in culture medium
Please state the figure in mOsm/kg; there is no need to write the unit.

In: Suppose we examine the compound C[N+](C)(C)CC(=O)[O-] ; what Osmotic pressure value has been reported?
Out: 1421

In: Suppose we examine the compound OCC(O)CO ; what Osmotic pressure value has been reported?
Out: 1232

In: Suppose we examine the compound OC[C@@H](O)[C@H](O)[C@@H](O)CO ; what Osmotic pressure value has been reported?
Out: 1230

In: Suppose we examine the compound OC[C@@H](O)[C@@H](O)[C@H](O)[C@H](O)CO ; what Osmotic pressure value has been reported?
Out: 1234

In: Suppose we examine the compound OC[C@H]1O[C@@](CO)(O[C@H]2O[C@H](CO)[C@@H](O)[C@H](O)[C@H]2O)[C@@H](O)[C@@H]1O ; what Osmotic pressure value has been reported?
Out: 1496

In: Suppose we examine the compound OC[C@@H](O)[C@@H](O)[C@H](O)[C@@H](O)CO ; what Osmotic pressure value has been reported?
Out: 1289
